Taken from PubChem BioAssay (NCATS).

test: S16 Schwann cell PMP22 intronic element beta-lactamase assay (AID 624044); conditions: S16 rat Schwann cells, PMP22 element beta-lactamase FRET, 24 h; series mostly up to 17.1 µM; also: nearly all actives have a fitted effect of over 15% in size
Inconclusive results are not listed. Active and inactive are the calls of the source. Calls follow the shape of the full dose curve.
Just give me one of these, please: active, inactive

compound=CC(C)Oc1ccc2c(=O)cc(-c3ccccc3)oc2c1 assigned_class=inactive
compound=O=C(O)[C@@H]1[C@@H]2C[C@H]3c4[nH]c5ccccc5c4CCN3C[C@@H]2CC[C@@H]1O assigned_class=inactive
compound="CCC(CCC(C)C1CCC2C3CC=C4CC(O)CC[C@@]4(C)C3CC[C@@]12C)C(C)C (some centres not stated)" assigned_class=inactive
compound="C[C@@]12CCC(=O)C=C1C=CC1C2CC[C@]2(C)C1CC[C@@]21CCC(=O)O1 (some centres not stated)" assigned_class=inactive
compound=COC(=O)C1=C(C)NC(C)=C(C(=O)OC(C)C)[C@H]1c1cccc2nonc12 assigned_class=inactive
compound=CC(=O)O[C@H]1C[C@@]2(C)[C@H](C[C@@H](O)[C@H]3[C@@]4(C)CC[C@@H](O)[C@@H](C)[C@H]4CC[C@@]32C)C1=C(CCC=C(C)C)C(=O)O assigned_class=inactive
compound=CC(C)(C)NC[C@H](O)COc1cccc2c1CCC(=O)N2 assigned_class=inactive
compound=C[C@@H](CNC1CCCCC1)OC(=O)c1ccccc1 assigned_class=inactive

Alright, here's another compound for you.
Status in this test for `CC1(C)O[C@H]2C[C@@H]3[C@H]4CCC5=CC(=O)CC[C@@]5(C)[C@]4(F)[C@@H](O)C[C@@]3(C)[C@@]2(C(=O)CCl)O1` ?
inactive
